- experimental-system: T1, Full length recombinant HBcAg (rHBcAg) encompassing residues 1-183 (hepatitis B virus, UniProt P03146 1-183)
- T1 construct: range 1-183; also called hepatitis B virus core antigen
- T1 sequence (P03146 whole entry, the tested form may be a part): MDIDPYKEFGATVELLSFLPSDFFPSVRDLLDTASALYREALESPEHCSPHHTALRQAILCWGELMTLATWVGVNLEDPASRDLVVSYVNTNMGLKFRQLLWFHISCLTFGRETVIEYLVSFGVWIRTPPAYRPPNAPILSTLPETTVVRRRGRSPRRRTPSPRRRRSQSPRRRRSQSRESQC
- test: competition EIA, peptide added to HBcAg before mAb 4-2 (competitor); OD of bound mAb
Reported OD at 490 nm values for a set of binders

>  <binder>
LSCKASGYIFTS [LSCKASGYIFTS (SEQ. ID. No. 46)]

>  <OD at 490 nm, OD>
0.777

$$$$
>  <binder>
KASGYIFTS [KASGYIFTS (SEQ. ID. No. 49)]

>  <OD at 490 nm, OD>
0.866

$$$$
>  <binder>
ASVKLSCKASGYIFTS [ASVKLSCKASGYIFTS (SEQ. ID. No. 42)]

>  <OD at 490 nm, OD>
0.207

$$$$
>  <binder>
KLSCKASGYIFTS [KLSCKASGYIFTS (SEQ. ID. No. 45)]

>  <OD at 490 nm, OD>
0.808

$$$$
>  <binder>
CKASGYIFTS [CKASGYIFTS (SEQ. ID. No. 48)]

>  <OD at 490 nm, OD>
0.851

$$$$
>  <binder>
SVKLSCKASGYIFTS [SVKLSCKASGYIFTS (SEQ. ID. No. 43)]

>  <OD at 490 nm, OD>
0.175

$$$$
>  <binder>
VKLSCKASGYIFTS [VKLSCKASGYIFTS (SEQ. ID. No. 44)]

>  <OD at 490 nm, OD>
0.152

$$$$

The measured values listed here are drawn from patent US20020058247A1.
